- ASSAY_TEXT: Cytotoxicity against human PC3 cells
- Type: cell-based
- RUN_CONDITIONS: PC-3 cells
ASSAY_METRIC: GI50 (nM)
Answers are plain numbers, in nM.

Look up GI50 of `Nc1nc(N)c2c(CCCc3ccc(C(=O)N[C@@H](CCC(=O)O)C(=O)O)cc3)coc2n1` and report it.
12.5
